Exercise: state measured IC50 for each of the compounds provided.
study.system: PI3Kβ (Homo sapiens)
Construct: purchased sigma (US)
Sequence (P42338 whole entry): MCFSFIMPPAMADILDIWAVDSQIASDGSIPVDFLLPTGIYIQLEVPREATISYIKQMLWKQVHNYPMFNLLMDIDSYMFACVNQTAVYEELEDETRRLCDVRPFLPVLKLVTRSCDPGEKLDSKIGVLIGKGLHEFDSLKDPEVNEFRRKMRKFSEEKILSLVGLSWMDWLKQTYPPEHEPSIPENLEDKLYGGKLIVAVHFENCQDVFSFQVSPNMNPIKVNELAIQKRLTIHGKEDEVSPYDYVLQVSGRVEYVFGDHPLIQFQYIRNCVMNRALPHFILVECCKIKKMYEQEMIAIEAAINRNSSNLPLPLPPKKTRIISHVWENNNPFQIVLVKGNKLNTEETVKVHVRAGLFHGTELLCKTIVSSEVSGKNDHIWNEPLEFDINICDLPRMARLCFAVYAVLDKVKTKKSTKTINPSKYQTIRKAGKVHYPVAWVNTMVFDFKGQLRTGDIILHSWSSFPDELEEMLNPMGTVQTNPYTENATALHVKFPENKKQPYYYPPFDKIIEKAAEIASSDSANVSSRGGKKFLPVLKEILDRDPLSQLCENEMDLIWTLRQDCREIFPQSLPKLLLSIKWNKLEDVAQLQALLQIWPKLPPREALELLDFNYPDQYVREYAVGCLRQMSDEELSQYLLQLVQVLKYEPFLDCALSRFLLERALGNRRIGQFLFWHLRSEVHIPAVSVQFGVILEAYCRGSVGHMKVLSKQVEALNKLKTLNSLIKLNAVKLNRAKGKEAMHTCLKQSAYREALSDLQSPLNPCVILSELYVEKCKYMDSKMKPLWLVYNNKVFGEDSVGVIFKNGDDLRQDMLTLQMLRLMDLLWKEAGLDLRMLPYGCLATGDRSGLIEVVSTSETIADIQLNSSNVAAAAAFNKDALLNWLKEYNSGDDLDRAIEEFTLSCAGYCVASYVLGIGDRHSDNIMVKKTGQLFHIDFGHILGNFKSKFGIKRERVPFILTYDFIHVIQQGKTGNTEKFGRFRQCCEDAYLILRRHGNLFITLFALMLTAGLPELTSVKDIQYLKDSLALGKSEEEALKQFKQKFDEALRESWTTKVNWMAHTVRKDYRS
Sequence (P27986 whole entry partner): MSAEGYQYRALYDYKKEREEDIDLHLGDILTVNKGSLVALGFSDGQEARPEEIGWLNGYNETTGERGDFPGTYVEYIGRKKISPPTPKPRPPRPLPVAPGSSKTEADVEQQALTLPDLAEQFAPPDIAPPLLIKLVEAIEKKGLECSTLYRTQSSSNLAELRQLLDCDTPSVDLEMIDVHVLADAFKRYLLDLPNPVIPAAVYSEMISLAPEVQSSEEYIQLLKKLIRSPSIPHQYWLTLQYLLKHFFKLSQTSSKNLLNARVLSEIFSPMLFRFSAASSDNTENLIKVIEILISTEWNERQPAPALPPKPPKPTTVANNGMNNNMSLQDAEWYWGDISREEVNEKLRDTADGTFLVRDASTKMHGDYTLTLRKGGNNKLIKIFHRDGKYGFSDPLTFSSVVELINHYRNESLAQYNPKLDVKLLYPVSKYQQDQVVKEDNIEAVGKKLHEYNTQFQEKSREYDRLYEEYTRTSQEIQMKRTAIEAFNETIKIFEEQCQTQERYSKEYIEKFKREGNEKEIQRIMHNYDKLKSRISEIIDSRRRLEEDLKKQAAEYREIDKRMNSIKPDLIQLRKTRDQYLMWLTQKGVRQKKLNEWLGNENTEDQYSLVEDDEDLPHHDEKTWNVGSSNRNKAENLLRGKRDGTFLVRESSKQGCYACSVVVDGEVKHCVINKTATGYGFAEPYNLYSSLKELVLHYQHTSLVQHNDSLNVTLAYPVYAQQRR
measurement.description: In vitro enzyme activity (ADP-Glo) against PI3Kβ
Format: biochemical
condition.summary: Table 2; ATP 10 μM, PIP2:PS 50 μM; read-out: IC50 against PI3Kβ
Numbers only, in µM.

For orientation, consider the following solved cases.
compound	IC50 (µM)
CCC(c1nc2ccccc2c(=O)n1C1CC1)n1nc(-c2ccc(OC)c(F)c2)c2c(N)ncnc21 (stereo not shown)	0.27
COc1ccc(-c2nn(C(C)c3nc4ccccc4c(=O)n3C3CC3)c3ncnc(N)c23)cc1F (stereo not shown)	0.122
COc1ccc(-c2nn(C(C)c3nc4ccc(F)cc4c(=O)n3C3CC3)c3ncnc(N)c23)cc1F (stereo not shown)	0.344

Okay, here is my list. What is IC50 for each of these?
1. CCC(c1nc2ccc(F)cc2c(=O)n1C1CC1)n1nc(-c2ccc(OC)c(F)c2)c2c(N)ncnc21 (stereo not shown)
2. COc1ccc(-c2nn(C(C)c3nc4ccc(F)cc4c(=O)n3C3CC3)c3ncnc(N)c23)cc1 (stereo not shown)

Reply text:
[0.999, 0.69]

From: patent US12221448B2
